Molecular target: PDE4B enzyme (Homo sapiens (Human))
Sequence (Q07343 whole entry): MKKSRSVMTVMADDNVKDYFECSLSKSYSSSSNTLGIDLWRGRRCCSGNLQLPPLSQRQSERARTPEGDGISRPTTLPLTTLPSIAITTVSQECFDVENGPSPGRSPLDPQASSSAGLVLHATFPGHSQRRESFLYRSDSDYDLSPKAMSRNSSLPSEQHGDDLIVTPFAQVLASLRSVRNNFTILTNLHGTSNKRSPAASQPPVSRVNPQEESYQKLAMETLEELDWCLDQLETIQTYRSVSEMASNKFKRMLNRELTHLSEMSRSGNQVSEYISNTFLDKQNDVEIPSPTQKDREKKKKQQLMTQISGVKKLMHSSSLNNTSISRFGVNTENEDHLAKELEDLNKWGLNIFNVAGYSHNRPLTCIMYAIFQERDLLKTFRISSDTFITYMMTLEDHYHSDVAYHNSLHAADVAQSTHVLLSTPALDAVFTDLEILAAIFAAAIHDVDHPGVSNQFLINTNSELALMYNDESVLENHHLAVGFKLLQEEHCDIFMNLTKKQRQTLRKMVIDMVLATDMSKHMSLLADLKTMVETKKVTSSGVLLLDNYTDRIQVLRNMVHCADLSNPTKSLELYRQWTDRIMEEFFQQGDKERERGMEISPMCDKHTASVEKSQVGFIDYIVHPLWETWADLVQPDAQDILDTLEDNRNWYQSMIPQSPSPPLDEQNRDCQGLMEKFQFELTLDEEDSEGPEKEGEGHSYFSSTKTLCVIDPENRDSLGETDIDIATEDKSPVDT
Test: PDE4B inhibitory activity, LANCE Ultra cAMP assay
Conditions: 50% inhibition from cAMP to 5′AMP
pIC50: −log10 of the molar value.
The following compounds are listed with their measured pIC50 values.

{"columns": ["Structure as smiles", "Relation", "pIC50"],
 "data": [
  ["COc1ccc(-c2nc(SC)ncc2C(=O)NC2CCOCC2)cc1OC", "=", 6.62],
  ["COc1ccc(-c2nc(C(F)(F)F)ncc2C(=O)Nc2cc(C(C)C)c(N)c(C(C)C)c2)cc1OC", "=", 6.65],
  ["COc1ccc(CCNC(=O)c2cnc(SC)nc2N2CCOCC2)cc1OC", ">", 8.00]
]}
